src = patent US20150065494A1

Reported inhibition at 10 µM is given for each of the following molecules.
- testedOn: beta-amyloid 42 (Aβ42) (Homo sapiens, UniProt P05067)
- Construct: Beta-amyloid 42 (Aβ42) was dissolved in dimethylsulfoxide (DMSO) to form a 250 mM Aβ42 stock solution
- Sequence (P05067 672-713 limits assumed): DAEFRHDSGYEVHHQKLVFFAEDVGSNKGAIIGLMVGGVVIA
- method: Inhibitory effect on the formation of beta-amyloid fibrils in vitro (ThT fluorescence assay)
- Type: biochemical
- conditionInfo: 10 μM compound; 25 μM Aβ42; ThT fluorescence
Where a name gives a salt, the structure may show the parent alone.

Worked cases, inhibition at 10 µM given:
CN(C)c1ccc(/C=C/c2cc3ccc(OCC4CCCCN4C)cc3o2)cc1 (stereo not shown) [Example 31, hydrochloride]	< 50%
CN(C)c1ccc(/C=C/c2cc3ccc(OCCCN4CCCCC4)cc3o2)cc1 [Example 11]	< 50%
CN1CCN(CCCOc2ccc3cc(/C=C/c4ccc(N(C)C)cc4)oc3c2)CC1 [Example 33, hydrochloride]	< 50%
CCN(CC)CCCOc1ccc2cc(/C=C/c3ccc(N(C)C)cc3)oc2c1 [Example 24, hydrochloride]	50 to 70%
C[C@@H]1CN(CCCOc2ccc3cc(/C=C/c4ccc(N(C)C)cc4)oc3c2)C[C@H](C)O1 [Example 28, hydrochloride]	< 50%

Quick one: inhibition at 10 µM for CN(C)c1ccc(/C=C/c2cc3ccc(OCCCc4cccnc4)cc3o2)cc1 [Example 38, hydrochloride] ?
< 50%

Check COc1cc(/C=C/C(=O)CC(=O)/C=C/c2ccc(O)c(OC)c2)ccc1O [Curcumin, curcumin, reference compound] too.
≥ 70%

* * *

- method: Passage test through the blood-brain barrier (brain tissue concentration)
- Type: in vivo, ICR mice and SD rats
- conditionInfo: brain; read-out: passage ability compared with plasma (blood-brain barrier)
quantityKind: Kp

Quick one: Kp for CN(C)CCCOc1ccc2cc(/C=C/c3ccc(N(C)C)cc3)oc2c1 [Example 3] ?
≥ 1

* * *

- method: Pharmacokinetics test in mice (dose-dependent)
- Format: in vivo, ICR mice
- conditionInfo: ICR, mouse, plasma, 100 mg/kg, po
quantityKind: AUC (µg·h/mL)
Use µg·h/mL as the unit, but write only the number.

Quick one: AUC for CN(C)CCCOc1ccc2cc(/C=C/c3ccc(N(C)C)cc3)oc2c1 ?
4.58

* * *

- method: Passage test through the blood-brain barrier (brain tissue concentration)
- Assay type: in vivo, ICR mice and SD rats
- conditionInfo: 10.0 mg/kg, po; brain tissue
quantityKind: Tmax (h)
Use h as the unit, but write only the number.

Quick one: Tmax for CN(C)CCCOc1ccc2cc(/C=C/c3ccc(N(C)C)cc3)oc2c1.Cl [Example 23] ?
10

* * *

- method: Pharmacokinetics test in mice (dose-dependent)
- Type: in vivo, ICR mice
- conditionInfo: ICR, mouse, plasma, 30 mg/kg, po
quantityKind: AUC

Quick one: AUC for CN(C)CCCOc1ccc2cc(/C=C/c3ccc(N(C)C)cc3)oc2c1 [Example 3] ?
1.89 µg·h/mL

* * *

- method: Pharmacokinetics test in mice (dose-dependent)
- Format: in vivo, ICR mice
- conditionInfo: ICR, mouse, plasma, 30 mg/kg, po
quantityKind: Tmax (h)
Use h as the unit, but write only the number.

Quick one: Tmax for CN(C)CCCOc1ccc2cc(/C=C/c3ccc(N(C)C)cc3)oc2c1 ?
2

* * *

- method: Pharmacokinetics test in mice (dose-dependent)
- Type: in vivo, ICR mice
- conditionInfo: ICR, mouse, plasma, 30 mg/kg, po
quantityKind: half-life

Quick one: half-life for CN(C)CCCOc1ccc2cc(/C=C/c3ccc(N(C)C)cc3)oc2c1 ?
5.4 h

* * *

- method: Pharmacokinetics test in mice (dose-dependent)
- Format: in vivo, ICR mice
- conditionInfo: ICR, mouse, plasma, 100 mg/kg, po
- Experimental: Two 6 week-old ICR mice (weight: approximately 25 g) were used per test group. A solution prepared by dissolving the compound of Example 3 in distilled water was administered to each experimental animal. […] 50 μL of plasma was placed in a 2.0 mL tube with a cap (Eppendorf Co.) and acidified by adding 20 μL of 0.1% formic acid thereto. […] The residue was re-dissolved in 50 μL of mobile phase and 5 μL of the resulting solution was injected into LC/MS and analyzed. […]
quantityKind: half-life (h)
Use h as the unit, but write only the number.

Quick one: half-life for CN(C)CCCOc1ccc2cc(/C=C/c3ccc(N(C)C)cc3)oc2c1 ?
23.5

* * *

- method: Passage test through the blood-brain barrier (brain tissue concentration)
- Assay type: in vivo, ICR mice and SD rats
- conditionInfo: brain; 10.0 mg/kg, po; read-out: AUCBrain/AUCPlasma
quantityKind: Kp
// no unit string in output, number only

Quick one: Kp for CN(C)CCCOc1ccc2cc(/C=C/c3ccc(N(C)C)cc3)oc2c1.Cl [Example 23, hydrochloride] ?
58.1

* * *

- method: Pharmacokinetics test (blood concentration) in mice and rats
- Format: in vivo, ICR mice and SD rats
- conditionInfo: plasma; 10.0 mg/kg, po; n = 3
quantityKind: Tmax (h)
Use h as the unit, but write only the number.

Quick one: Tmax for CN(C)CCCOc1ccc2cc(/C=C/c3ccc(N(C)C)cc3)oc2c1.Cl [Example 23] ?
4

* * *

- testedOn: hERG potassium ion channel (Homo sapiens, UniProt Q12809)
- Sequence (Q12809 whole entry): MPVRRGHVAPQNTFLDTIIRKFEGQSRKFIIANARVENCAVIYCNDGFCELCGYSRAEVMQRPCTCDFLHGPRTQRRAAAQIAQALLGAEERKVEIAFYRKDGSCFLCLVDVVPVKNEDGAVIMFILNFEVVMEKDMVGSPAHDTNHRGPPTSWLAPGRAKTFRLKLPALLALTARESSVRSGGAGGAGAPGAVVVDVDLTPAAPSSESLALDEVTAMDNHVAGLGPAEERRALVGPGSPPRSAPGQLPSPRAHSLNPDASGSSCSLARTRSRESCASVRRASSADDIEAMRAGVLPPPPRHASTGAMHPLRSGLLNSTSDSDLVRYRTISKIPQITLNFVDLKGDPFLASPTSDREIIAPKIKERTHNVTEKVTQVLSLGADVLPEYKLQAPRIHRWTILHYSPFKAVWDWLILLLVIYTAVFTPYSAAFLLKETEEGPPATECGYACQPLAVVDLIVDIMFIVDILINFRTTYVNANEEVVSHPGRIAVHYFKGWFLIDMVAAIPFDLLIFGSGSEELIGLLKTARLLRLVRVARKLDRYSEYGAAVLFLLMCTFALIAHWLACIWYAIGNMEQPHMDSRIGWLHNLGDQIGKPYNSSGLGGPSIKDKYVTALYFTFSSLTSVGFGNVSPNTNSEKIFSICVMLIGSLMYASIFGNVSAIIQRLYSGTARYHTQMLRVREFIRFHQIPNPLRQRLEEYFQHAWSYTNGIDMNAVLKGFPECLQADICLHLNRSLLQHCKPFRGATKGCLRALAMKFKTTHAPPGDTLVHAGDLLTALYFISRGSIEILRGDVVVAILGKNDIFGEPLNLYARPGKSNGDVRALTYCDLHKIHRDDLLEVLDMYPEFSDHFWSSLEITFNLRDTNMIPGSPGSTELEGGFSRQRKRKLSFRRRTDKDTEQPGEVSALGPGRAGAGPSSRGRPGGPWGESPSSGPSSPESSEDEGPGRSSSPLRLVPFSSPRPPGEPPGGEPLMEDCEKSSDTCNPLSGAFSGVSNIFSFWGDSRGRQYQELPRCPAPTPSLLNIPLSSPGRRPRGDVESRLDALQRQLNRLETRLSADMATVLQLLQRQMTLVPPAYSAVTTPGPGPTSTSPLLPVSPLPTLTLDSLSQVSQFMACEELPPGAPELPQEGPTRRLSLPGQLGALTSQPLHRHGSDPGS
- method: Inhibitory effect of hERG potassium ion channel (whole-cell patch clamp, HEK-hERG cell line)
- conditionInfo: HEK-hERG cells; whole-cell patch clamp; mean ± standard error
Structures can show the parent of a compound that is named as a salt.
quantityKind: pIC50
Convention used: pIC50 is expressed as -log10 of the molar concentration.

Quick one: pIC50 for CN(C)CCOc1ccc2cc(/C=C/c3ccc(N(C)C)cc3)oc2c1 [Example 22, hydrochloride] ?
4.28

* * *

- testedOn: beta-amyloid 42 (Aβ42) (Homo sapiens, UniProt P05067)
- Construct: Beta-amyloid 42 (Aβ42) was dissolved in dimethylsulfoxide (DMSO) to form a 250 mM Aβ42 stock solution
- method: Inhibitory effect on the formation of beta-amyloid fibrils in vitro (ThT fluorescence assay)
- Type: biochemical
- conditionInfo: 10 μM compound; 25 μM Aβ42; ThT fluorescence
quantityKind: % Inhibition (10 μM)

CN(C)c1ccc(/C=C/c2cc3ccc(OCCCN4CCS(=O)(=O)CC4)cc3o2)cc1.Cl	* (* (<50%))
CN(C)c1ccc(/C=C/c2cc3ccc(OCCN4CCCCC4)cc3o2)cc1.Cl	* (* (<50%))
CN(C)c1ccc(/C=C/c2cc3ccc(OCCCN4CCSCC4)cc3o2)cc1.Cl	* (* (<50%))

* * *

- method: Pharmacokinetics test (blood concentration) in mice and rats
- Assay type: in vivo, ICR mice and SD rats
- conditionInfo: plasma; 5.0 mg/kg, iv; n = 3
quantityKind: AUC
Express the reported value numerically, then name its unit.

Quick one: AUC for CN(C)CCCOc1ccc2cc(/C=C/c3ccc(N(C)C)cc3)oc2c1.Cl ?
535 ng·h/mL

* * *

- method: Pharmacokinetics test in mice (dose-dependent)
- Assay type: in vivo, ICR mice
- conditionInfo: ICR, mouse, plasma, 10 mg/kg, po
quantityKind: Cmax (ng/mL)
Use ng/mL as the unit, but write only the number.

Quick one: Cmax for CN(C)CCCOc1ccc2cc(/C=C/c3ccc(N(C)C)cc3)oc2c1 [Example 3] ?
40.4

* * *

- method: Pharmacokinetics test in mice (dose-dependent)
- Type: in vivo, ICR mice
- conditionInfo: ICR, mouse, plasma, 10 mg/kg, po
quantityKind: Tmax (min)
Use min as the unit, but write only the number.

Quick one: Tmax for CN(C)CCCOc1ccc2cc(/C=C/c3ccc(N(C)C)cc3)oc2c1 ?
30

* * *

- method: Pharmacokinetics test in mice (dose-dependent)
- Assay type: in vivo, ICR mice
- conditionInfo: ICR, mouse, plasma, 10 mg/kg, po
quantityKind: AUC (ng·h/mL)
Use ng·h/mL as the unit, but write only the number.

Quick one: AUC for CN(C)CCCOc1ccc2cc(/C=C/c3ccc(N(C)C)cc3)oc2c1 [Example 3] ?
443

* * *

- method: Pharmacokinetics test in mice (dose-dependent)
- Assay type: in vivo, ICR mice
- conditionInfo: ICR, mouse, plasma, 30 mg/kg, po
quantityKind: Cmax (ng/mL)
Use ng/mL as the unit, but write only the number.

Quick one: Cmax for CN(C)CCCOc1ccc2cc(/C=C/c3ccc(N(C)C)cc3)oc2c1 ?
188

* * *

- method: Pharmacokinetics test (blood concentration) in mice and rats
- Format: in vivo, ICR mice and SD rats
- conditionInfo: plasma; 10.0 mg/kg, po; n = 3
quantityKind: Cmax (ng/mL)
Use ng/mL as the unit, but write only the number.

Quick one: Cmax for CN(C)CCCOc1ccc2cc(/C=C/c3ccc(N(C)C)cc3)oc2c1.Cl [Example 23] ?
62.7

* * *

Reported inhibition at 10 µM is given for each of the following molecules.
- testedOn: beta-amyloid 42 (Aβ42) (Homo sapiens, UniProt P05067)
- Construct: Beta-amyloid 42 (Aβ42) was dissolved in dimethylsulfoxide (DMSO) to form a 250 mM Aβ42 stock solution
- method: Inhibitory effect on the formation of beta-amyloid fibrils in vitro (ThT fluorescence assay)
- Type: biochemical
- conditionInfo: 10 μM compound; 25 μM Aβ42; ThT fluorescence
Structures can show the parent of a compound that is named as a salt.

Worked cases, inhibition at 10 µM given:
CN(C)c1ccc(/C=C/c2cc3ccc(OCCCc4ccncc4)cc3o2)cc1 [Example 17]	< 50%
COc1ccc2cc(/C=C/c3ccc(N(C)CCF)cc3)oc2c1 [Example 20]	≥ 70%
CN(C)CCCOc1ccc2cc(/C=C/c3ccc(N(C)C)cc3)oc2c1.Cl [Example 23, hydrochloride]	≥ 70%
CN1CCCC(COc2ccc3cc(/C=C/c4ccc(N(C)C)cc4)oc3c2)C1 (stereo not shown) [Example 32, hydrochloride]	< 50%
CN(C)c1ccc(/C=C/c2cc3ccc(OCCCc4ccccn4)cc3o2)cc1 [Example 37, hydrochloride]	< 50%

Quick one: inhibition at 10 µM for CN(C)CCOc1ccc2cc(/C=C/c3ccc(N(C)C)cc3)oc2c1 [Example 22, hydrochloride] ?
≥ 70%

Check CN(C)c1ccc(/C=C/c2cc3ccc(OCCN4CCOC4)cc3o2)cc1 [Example 21, hydrochloride] too.
50 to 70%
